Entry source: patent US8148388B2

Would you kindly list inhibition at 1 µM for each of these compounds?
# subject of test: Yes (h) (Homo sapiens, UniProt P07947)
# Sequence (P07947 whole entry): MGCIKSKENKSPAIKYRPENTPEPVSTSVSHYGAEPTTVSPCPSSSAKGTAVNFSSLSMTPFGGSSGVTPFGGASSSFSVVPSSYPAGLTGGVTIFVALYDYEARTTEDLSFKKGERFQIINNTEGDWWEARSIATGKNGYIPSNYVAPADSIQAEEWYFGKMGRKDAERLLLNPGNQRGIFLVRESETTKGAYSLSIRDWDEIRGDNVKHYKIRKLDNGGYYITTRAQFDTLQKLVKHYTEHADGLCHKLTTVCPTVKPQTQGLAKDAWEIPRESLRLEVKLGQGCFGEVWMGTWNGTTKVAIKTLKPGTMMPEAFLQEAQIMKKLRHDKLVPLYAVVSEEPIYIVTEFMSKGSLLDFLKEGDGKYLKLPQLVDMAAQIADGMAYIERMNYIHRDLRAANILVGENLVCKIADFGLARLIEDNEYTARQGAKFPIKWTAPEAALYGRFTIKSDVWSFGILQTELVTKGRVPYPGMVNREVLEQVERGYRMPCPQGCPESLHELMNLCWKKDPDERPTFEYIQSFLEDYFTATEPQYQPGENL
# assay explanation: Yes human kinase assay (glass-fiber filter)
# Assay type: biochemical
# condition label: test concentration of 10^−6M; read-out: C11 score (inhibition of Yes human)

Example entries and their recorded answers appear below.
IN: Give its inhibition at 1 µM value. Item: O=C1COc2cccc(c2)Nc2nccc(n2)Nc2cccc(c2)OCCCN1
OUT: 60 to 80%

IN: Give its inhibition at 1 µM value. Item: COc1ccc2cc1OCCCNC(=O)C(C)(C)NC(=O)Cc1ccc(Cl)cc1Nc1cc(ncn1)N2
OUT: > 80%

Parameter requested: inhibition at 1 µM. Apply to each item below.
1. O=C1NCc2cccc(c2)Nc2ccnc(n2)Nc2cccc1c2
2. COc1ccc2cc1OCCNC(=O)CNC(=O)Cc1ccc(Cl)cc1Nc1cc(ncn1)N2

OUT:
10 to 30%
> 80%

Parameter requested: inhibition at 1 µM. Apply to each item below.
1. CC(C)C1NC(=O)c2cccc(c2)Nc2cc(ncn2)Nc2cccc(c2)CNC(=O)CNC1=O (stereo not shown)
2. N#Cc1cnc2nc1Nc1cccc(c1)OCC(=O)NCCCOc1cccc(c1)N2
3. O=C1NCCCCCCOc2cccc(c2)Nc2ccnc(n2)Nc2cccc1c2
4. N#Cc1cnc2nc1Nc1cccc(c1)C(=O)NCCOc1cccc(c1)N2
5. N#Cc1cnc2nc1Nc1cccc(c1)OCCCNC(=O)COc1cccc(c1)N2
6. O=C1COc2cccc(c2)Nc2nccc(n2)Nc2cccc(c2)OCCCCN1
7. N#Cc1cnc2nc1Nc1cccc(c1)OCC(=O)NCCOc1cccc(c1)N2

OUT:
1: 10 to 30%; 2: 10 to 30%; 3: 10 to 30%; 4: 10 to 30%; 5: 60 to 80%; 6: 30 to 60%; 7: 10 to 30%

Parameter requested: inhibition at 1 µM. Apply to each item below.
1. O=C1NCCCCCCNC(=O)c2cccc(c2)Nc2cc(ncn2)Nc2cccc1c2
2. N#Cc1cnc2nc1Nc1cccc(c1)OCCNC(=O)c1cccc(c1)N2

OUT:
1: 10 to 30%; 2: 10 to 30%
